The measured values listed here are drawn from PubChem BioAssay AID1963833.

# Tested on: 883617-216-R-J1-PDC complex spheroid viability
# protocol_summary: Anticancer human tumor 883617-216-R-J1-PDC patient-derived bladder carcinoma cell line growth inhibition [POLQ]
# run_conditions: second compound 0.0316 µM; first compound 0.01 µM; stronger effect = lower value
property_name: viability, T/C (%)
Report the value in % with no unit label.

INSERT INTO assay_data (compound, property_name, recorded_result) VALUES
  ('CCc1c2c(nc3ccc(O)cc13)-c1cc3c(c(=O)n1C2)COC(=O)[C@]3(O)CC + COC1C(OC(N)=O)C(O)C(Oc2ccc3c(O)c(NC(=O)c4ccc(O)c(CC=C(C)C)c4)c(=O)oc3c2C)OC1(C)C', 'viability, T/C', 57.6),
  ('COc1cccc(OCCCN)c1-c1cc(Nc2cnc(C#N)cn2)n[nH]1 + Cc1cccc(N(C)C(=O)C2C(O)CCN2c2nc(C)cc(C(F)(F)F)c2C#N)c1', 'viability, T/C', 70.7),
  ('C=CCn1c(=O)c2cnc(Nc3ccc(N4CCN(C)CC4)cc3)nc2n1-c1cccc(C(C)(C)O)n1 + COC1C(OC(N)=O)C(O)C(Oc2ccc3c(O)c(NC(=O)c4ccc(O)c(CC=C(C)C)c4)c(=O)oc3c2C)OC1(C)C', 'viability, T/C', 97.9),
  ('Cn1ncnc1[C@H]1c2n[nH]c(=O)c3cc(F)cc(c23)N[C@@H]1c1ccc(F)cc1 + Nc1ccc(C#CCN(C(=O)Cc2ncc(C(F)(F)F)cc2C(F)(F)F)c2ccc(F)cc2)nn1', 'viability, T/C', 82.4);

Then there is this compound:
Consider the compound shown here: CCc1c2c(nc3ccc(O)cc13)-c1cc3c(c(=O)n1C2)COC(=O)[C@]3(O)CC + Nc1ccc(C#CCN(C(=O)Cc2ncc(C(F)(F)F)cc2C(F)(F)F)c2ccc(F)cc2)nn1 What is its recorded viability, T/C?
71

----------
Quick reference for viability, T/C among some molecules
# Test system: 883617-216-R-J1-PDC complex spheroid viability
# protocol_summary: Anticancer human tumor 883617-216-R-J1-PDC cell line growth inhibition [POLQ];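 also: spheroids exposed to compounds for seven days before readout; 100% = DMSO vehicle control viability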
# run_conditions: second compound 10 µM; first compound 0.0316 µM; stronger effect = lower value

A selection of reference data follows.
INSERT INTO results (molecule, property_name, recorded_result) VALUES
  ('CC[C@@]1(O)C(=O)OCc2c1cc1n(c2=O)Cc2cc3c(CN(C)C)c(O)ccc3nc2-1 + Nc1ccc(C#CCN(C(=O)Cc2ncc(C(F)(F)F)cc2C(F)(F)F)c2ccc(F)cc2)nn1', 'viability, T/C', '91.5%'),
  ('CC1COCCN1c1cc(C2(O)CC3CCC(C2)O3)c2cnn(-c3ccn[nH]3)c2n1 (stereo not given) + Cc1cccc(N(C)C(=O)C2C(O)CCN2c2nc(C)cc(C(F)(F)F)c2C#N)c1', 'viability, T/C', '81.5%'),
  ('Nc1ccn(C2OC(CO)C(O)C2(F)F)c(=O)n1 (stereo not given) + Nc1ccc(C#CCN(C(=O)Cc2ncc(C(F)(F)F)cc2C(F)(F)F)c2ccc(F)cc2)nn1', 'viability, T/C', '62.4%'),
  ('CC1COCCN1c1cc(C2(S(C)(=N)=O)CC2)nc(-c2ccnc3[nH]ccc23)n1 (stereo not given) + COC1C(OC(N)=O)C(O)C(Oc2ccc3c(O)c(NC(=O)c4ccc(O)c(CC=C(C)C)c4)c(=O)oc3c2C)OC1(C)C', 'viability, T/C', '85.1%'),
  ('C#Cc1c(F)ccc2cc(O)cc(-c3ncc4c(N5CC6CCC(C5)N6)nc(OCC56CCCN5CC(F)C6)nc4c3F)c12 (stereo not given) + Cc1cccc(N(C)C(=O)C2C(O)CCN2c2nc(C)cc(C(F)(F)F)c2C#N)c1', 'viability, T/C', '115%');

Request the reported viability, T/C associated with C#Cc1c(F)ccc2cc(O)cc(-c3ncc4c(N5CC6CCC(C5)N6)nc(OCC56CCCN5CC(F)C6)nc4c3F)c12 (stereo not given) + COC1C(OC(N)=O)C(O)C(Oc2ccc3c(O)c(NC(=O)c4ccc(O)c(CC=C(C)C)c4)c(=O)oc3c2C)OC1(C)C
85.8%
